- testSummary: Cytotoxicity against HBE (human bronchial epithelial) cells assessed as reduction in cell viability incubated for 48 hrs by MTT assay
- Format: toxicity, cell-based
Readings of IC50 at 48 h for the listed molecules
Hi! Could you send only the number? It should be in µM, unit omitted.

Consider the worked cases shown below.
compoundSmiles | dataValue
C=CCc1ccc(OC(=O)Cc2c3[n+](cc4c(OC)c(OC)ccc24)CCc2cc4c(cc2-3)OCO4)c(-c2ccc(OC)c(CC=C)c2)c1 | 8.14
C=CCc1ccc(OC(=O)Cc2c3[n+](cc4c(OC)c(OC)ccc24)CCc2cc4c(cc2-3)OCO4)c(-c2ccc(OCCC)c(CC=C)c2)c1 | 7.08

Shift focus to the following entry.
// C=CCc1ccc(OCCCCCC[n+]2ccc(/C=C/c3c[nH]c4ccccc34)cc2)c(-c2ccc(OCCC)c(CC=C)c2)c1 : IC50 at 48 h value = 11.1

---

- testSummary: Cytotoxicity against HBE (human bronchial epithelial) cells assessed as reduction in cell viability incubated for 48 hrs by MTT assay
- Type: toxicity, cell-based
Readings of IC50 at 48 h for the listed compounds
Hi! Could you send only the number? It should be in µM, unit omitted.

Consider the worked cases shown below.
compoundSmiles | recordedMetric | dataValue
CCCCCCOC(=O)Cc1c2[n+](cc3c(OC)c(OC)ccc13)CCc1cc3c(cc1-2)OCO3 | IC50 at 48 h | 10.6
C=CCc1ccc(OC)c(-c2ccc(OCCCCCCOC(=O)Cc3c4[n+](cc5c(OC)c(OC)ccc35)CCc3cc5c(cc3-4)OCO5)c(CC=C)c2)c1 | IC50 at 48 h | 5.09
C=CCc1ccc(OC)c(-c2ccc(OCCC[n+]3ccc(/C=C/c4c[nH]c5ccccc45)cc3)c(CC=C)c2)c1 | IC50 at 48 h | 20.4
C=CCc1ccc(OCCCCCCCCCC[n+]2ccc(/C=C/c3c[nH]c4ccccc34)cc2)c(-c2ccc(OCCC)c(CC=C)c2)c1 | IC50 at 48 h | 17.3
C=CCc1ccc(OCCCCCCOC(=O)Cc2c3[n+](cc4c(OC)c(OC)ccc24)CCc2cc4c(cc2-3)OCO4)c(-c2ccc(OC)c(CC=C)c2)c1 | IC50 at 48 h | 7.06
C=CCc1ccc(OC)c(-c2ccc(OCCCCCCCCCCOC(=O)Cc3c4[n+](cc5c(OC)c(OC)ccc35)CCc3cc5c(cc3-4)OCO5)c(CC=C)c2)c1 | IC50 at 48 h | 5.01

Shift focus to the following entry.
// C=CCc1ccc(OCCC)c(-c2ccc(OCCCOC(=O)Cc3c4[n+](cc5c(OC)c(OC)ccc35)CCc3cc5c(cc3-4)OCO5)c(CC=C)c2)c1 : IC50 at 48 h value = 6.7

---

- testSummary: Cytotoxicity against human HL7702 cells assessed as reduction in cell viability incubated for 48 hrs by MTT assay
- Format: toxicity, cell-based
- assayContext: HL7702 (L02) cells
Field: label. Allowed values: met (IC50 at 48 h < 5 µM) or not met (IC50 at 48 h >= 5 µM).

Some solved entries appear below for comparison.
compoundSmiles | class
C=CCc1ccc(OCCC)c(-c2ccc(OC(=O)Cc3c4[n+](cc5c(OC)c(OC)ccc35)CCc3cc5c(cc3-4)OCO5)c(CC=C)c2)c1 | met
C=CCc1ccc(OC)c(-c2ccc(OCCCCCCOC(=O)Cc3c4[n+](cc5c(OC)c(OC)ccc35)CCc3cc5c(cc3-4)OCO5)c(CC=C)c2)c1 | met
C=CCc1ccc(OCCC[n+]2ccc(/C=C/c3c[nH]c4ccccc34)cc2)c(-c2ccc(OC)c(CC=C)c2)c1 | met

Does this molecule meet the criterion IC50 at 48 h < 5 µM? C=CCc1ccc(OCCCCCCCCCCOC(=O)Cc2c3[n+](cc4c(OC)c(OC)ccc24)CCc2cc4c(cc2-3)OCO4)c(-c2ccc(OCCC)c(CC=C)c2)c1
met

Does this molecule meet the criterion IC50 at 48 h < 5 µM? C=CCc1ccc(OCCCCCCOC(=O)Cc2c3[n+](cc4c(OC)c(OC)ccc24)CCc2cc4c(cc2-3)OCO4)c(-c2ccc(OCCC)c(CC=C)c2)c1
not met

Does this molecule meet the criterion IC50 at 48 h < 5 µM? C=CCc1ccc(OCCCCCC[n+]2ccc(/C=C/c3c[nH]c4ccccc34)cc2)c(-c2ccc(OCCC)c(CC=C)c2)c1
met

Does this molecule meet the criterion IC50 at 48 h < 5 µM? CCCCCCCCCCCCc1c2[n+](cc3c(OC)c(OC)ccc13)CCc1cc3c(cc1-2)OCO3
met

Data provenance: ChEMBL document CHEMBL5543068
